# Test system: pigweed (Amaranthus retroflexus)
# experimentalProtocol: Test A preemergence
# Type: in vivo
# measurementSetup: Amaranthus retroflexus, pre-emergence, 240 h, 500 g ai/ha, Preemergence, visual injury vs untreated controls after approximately 10 d; read-out: Pigweed plant response rating (0 to 100 scale where 0 is no effect and 100 is complete control)

compound	pest or weed control at 500 g/ha [%]
CCOc1ccc([C@H]2CN(C)C(=O)[C@@H]2C(=O)Nc2ccc(F)cc2F)cc1 [Compound 905]	0
COc1ccc([C@H]2CN(C)C(=O)[C@@H]2C(=O)Nc2ccccc2F)cc1OC [Compound 852]	40
CN1CC[C@H](c2cccc(Cl)c2)[C@@H](C(=O)Nc2cccc(F)c2F)C1=O [Compound 921]	0
CN1C[C@H](c2cc(F)c(C(F)(F)F)c(F)c2)[C@@H](C(=O)Nc2ccc(F)cc2F)C1=O [Compound 901]	60
CON1CC[C@H](c2ccc(F)cc2)[C@@H](C(=O)Nc2cccc(F)c2F)C1=O [Compound 918]	0
COc1ccc([C@H]2CN(C)C(=O)[C@@H]2C(=O)Nc2ccccc2SC)cc1OC [Compound 854]	0
CC(F)(F)c1cccc([C@H]2CNC(=O)[C@@H]2C(=O)Nc2ccccc2S(C)(=O)=O)c1 [Compound 780]	50
CN1C[C@H](c2cc(F)c(C(F)(F)F)c(F)c2)[C@@H](C(=O)Nc2ccccc2S(C)(=O)=O)C1=O [Compound 900]	90

* * *

# Tested on: ducksalad (Heteranthera limosa)
# experimentalProtocol: Test B flooded paddy test
# Format: in vivo
# measurementSetup: Heteranthera limosa, Flood, 250 g ai/ha; scale of 0 to 100 where 0 is no effect and 100 is complete control; read-out: Ducksalad plant response rating
# Description: Plant species in the flooded paddy test selected from rice (Oryra sativa), sedge, umbrella (small-flower umbrella sedge, Cyperus difformis), ducksalad (Heteranthera limosa), and barnyardgrass (Echinochloa crus-galli) were grown to the 2-leaf stage for testing. […] Treated plants and controls were maintained in a greenhouse for 13 to 15 d, after which time all species were compared to controls and visually evaluated. […]
readout: pest or weed control at 250 g/ha (%)

smilesRecord	value
COc1ccc([C@H]2CN(C)C(=O)[C@@H]2C(=O)Nc2ccccc2F)cc1OC	40
CN1C[C@H](c2ccc3c(c2)CCC3)[C@@H](C(=O)Nc2ccccc2F)C1=O	100
CN1C[C@H](c2cccc(C3CC3)c2)[C@@H](C(=O)Nc2ccccc2S(C)(=O)=O)C1=O	90
CN1C[C@H](c2cccc(COC(F)F)c2)[C@@H](C(=O)Nc2ccccc2F)C1=O	100
CN1C[C@H](c2ccc(C(F)(F)F)cc2)[C@@H](C(=O)Nc2ccc(F)cc2Br)C1=O	60
CN1C[C@H](c2ccc(C(F)(F)F)cc2)[C@@H](C(=O)Nc2ccccc2C(F)(F)F)C1=O	100
Cc1cccc(NC(=O)[C@H]2C(=O)N(C)C[C@@H]2c2ccc(C(F)(F)F)cc2)c1C	35
Cc1cc(F)cc([C@H]2CNC(=O)[C@@H]2C(=O)Nc2ccc(F)c(F)c2F)c1	100

* * *

# System: corn (Zea mays)
# experimentalProtocol: Test G Post-Emergence Protocol
# Format: in vivo
# measurementSetup: Zea mays, post-emergence, 312 h, 15.625 g ai/ha, evaluated after 13 days (100=total damage to plant; 0=no damage to plant), read-out: Corn damage rating
Quick reference for plant injury at 15.625 g/ha among some compounds

compound	plant injury at 15.625 g/ha, %
CN1C[C@@H](c2ccc(C(F)(F)F)cc2)[C@H](C(=O)Nc2ccc(F)c(F)c2Cl)C1=O (racemic)	0
Cc1ncc(NC(=O)[C@@H]2C(=O)N(C)C[C@H]2c2ccc(C(F)(F)F)cc2)s1 (racemic)	0
Cc1cc(C2CN(C)C(=O)C2C(=O)Nc2cccc(F)c2F)cc(C)c1Cl (stereo not shown)	30
CN1C[C@H](c2ccc(C(F)(F)F)cc2)[C@@H](C(=O)Nc2cccc(C(F)F)c2)C1=O (racemic)	0
CN1C[C@@H](c2ccc(C(F)(F)F)cc2)[C@H](C(=O)Nc2sccc2C#N)C1=O (racemic)	0
Cc1cc([C@@H]2CN(C)C(=O)[C@H]2C(=O)Nc2cccc(F)c2F)cnc1Cl (racemic)	10
CN1C[C@H](c2cccc(C#N)c2)[C@@H](C(=O)Nc2ccccc2F)C1=O (racemic)	10

* * *

# Tested on: barnyardgrass (Echinochloa crus-galli)
# experimentalProtocol: Test A postemergence
# Type: in vivo
# measurementSetup: Echinochloa crus-galli, post-emergence, 240 h, Postemergence, 500 g ai/ha; visual injury, 0 to 100 scale (0 no effect, 100 complete control), approx. 10 d; read-out: Plant response rating, Barnyardgrass
Decision: pest or weed control at 500 g/ha compared against 90%; not below it gives 1, below it gives -1.

compound	assignedCategory
Cc1ccc([C@H]2CNC(=O)[C@@H]2C(=O)Nc2c(F)cccc2F)cc1C	-1
CC(C)c1cccc([C@H]2CN(C)C(=O)[C@@H]2C(=O)Nc2cccc(F)c2F)c1	1
C=CN1C[C@H](c2ccc(C)c(F)c2)[C@@H](C(=O)Nc2cccc(F)c2F)C1=O (racemic)	-1
CN1CC(c2cccc(OCC=C(Cl)Cl)c2)C(C(=O)Nc2cccc(F)c2F)C1=O (stereo not drawn)	-1

* * *

# Test system: barnyardgrass (Echinochloa crus-galli)
# experimentalProtocol: Test A preemergence
# Type: in vivo
# measurementSetup: Echinochloa crus-galli, pre-emergence, 240 h, 500 g ai/ha, preemergence; visual injury rating about 10 d after treatment, 0 to 100 scale (0 no effect, 100 complete control); read-out: Barnyardgrass plant response rating

molecule	pest or weed control at 500 g/ha / %
O=C1NC[C@H](c2cc(C(F)F)cs2)[C@H]1C(=O)Nc1cccc(F)c1F [Compound 1117]	90
CC(C)COc1cccc([C@H]2CN(C)C(=O)[C@@H]2C(=O)Nc2ccc(F)cc2F)c1 [Compound 1030]	90
CC(C)COc1cccc([C@H]2CNC(=O)[C@@H]2C(=O)Nc2ccccc2F)c1 [Compound 964]	90
CSc1ccccc1NC(=O)[C@H]1C(=O)N(C)C[C@@H]1c1cc(C)c(Br)c(C)c1 [Compound 1025]	70

* * *

# System: corn (Zea mays)
# experimentalProtocol: Test G Post-Emergence Protocol
# Assay type: in vivo
# measurementSetup: Zea mays, post-emergence, 312 h, 62.5 g ai/ha, evaluated after 13 days, read-out: Corn damage rating (100=total damage to plant; 0=no damage to plant)

compound	plant injury at 62.5 g/ha (%)
CN1C[C@H](c2ccc3ccccc3c2)[C@@H](C(=O)Nc2cccc(F)c2F)C1=O (racemic) [Compound 1501]	20
CN1C[C@@H](c2ccc(C(F)(F)F)cc2)[C@H](C(=O)Nc2cccc3cn[nH]c23)C1=O (racemic) [Compound 1605]	0
Cc1cnc(NC(=O)[C@@H]2C(=O)N(C)C[C@H]2c2ccc(C(F)(F)F)cc2)nc1 (racemic) [Compound 1575]	0
C=C(C)c1ccccc1NC(=O)[C@H]1C(=O)N(C)C[C@@H]1c1ccc(C(F)(F)F)cc1 (racemic) [Compound 1449]	0
CN1C[C@@H](c2ccc(C(F)(F)F)cc2)[C@H](C(=O)Nc2cccc(Cl)c2C#N)C1=O (racemic) [Compound 1645]	0
CSc1ccccc1NC(=O)[C@@H]1C(=O)N(C)C[C@H]1c1ccc(C(F)(F)F)nc1 (racemic) [Compound 1584]	10
CN1C[C@H](c2ccc(C(F)(F)F)cc2)[C@@H](C(=O)Nc2ccc(C(F)(F)F)cc2F)C1=O (racemic) [Compound 1426]	0

* * *

# Tested on: velvetleaf (Abutilon theophrasti)
# experimentalProtocol: Test G Pre-Emergence Protocol
# Assay type: in vivo
# measurementSetup: Abutilon theophrasti, pre-emergence, 312 h, 250 g ai/ha, evaluated after 13 days, read-out: Velvetleaf damage rating (100=total damage to plant; 0=no damage to plant)
readout: pest or weed control at 250 g/ha (%)

compound	readout	value
CN1C[C@@H](c2ccc(C(F)(F)F)cc2)[C@H](C(=O)Nc2cccc3cn[nH]c23)C1=O (racemic) [Compound 1605]	pest or weed control at 250 g/ha	0
CN1C[C@H](c2ccc(C#N)c(C(F)(F)F)c2)[C@@H](C(=O)Nc2ccccc2S(C)(=O)=O)C1=O (racemic) [Compound 1796]	pest or weed control at 250 g/ha	10
CN1C[C@@H](c2cc(Cl)nc(Cl)c2)[C@H](C(=O)Nc2cccc(F)c2F)C1=O (racemic) [Compound 1494]	pest or weed control at 250 g/ha	0
CN1C[C@H](c2cc(Cl)cc(C(F)(F)F)c2)[C@@H](C(=O)Nc2ccccc2S(C)(=O)=O)C1=O (racemic) [Compound 1797]	pest or weed control at 250 g/ha	70
CN1C[C@@H](c2ccc(C(F)(F)F)cc2)[C@H](C(=O)Nc2cccc(Cl)c2C#N)C1=O (racemic) [Compound 1645]	pest or weed control at 250 g/ha	10
C=C(C)c1ccccc1NC(=O)[C@H]1C(=O)N(C)C[C@@H]1c1ccc(C(F)(F)F)cc1 (racemic) [Compound 1449]	pest or weed control at 250 g/ha	0
CN1C[C@H](c2ccc(C(F)(F)F)cc2)[C@@H](C(=O)Nc2cccc(Cl)c2S(C)(=O)=O)C1=O (racemic) [Compound 1661]	pest or weed control at 250 g/ha	0
Cc1ccc([C@H]2CN(C)C(=O)[C@@H]2C(=O)Nc2cccnc2F)cc1 [Compound 1398]	pest or weed control at 250 g/ha	80
CN1C[C@H](c2ccc3c(c2)CCCC3)[C@@H](C(=O)Nc2cccc(F)c2F)C1=O (racemic) [Compound 1496]	pest or weed control at 250 g/ha	0
Cc1c(F)cccc1NC(=O)[C@@H]1C(=O)N(C)C[C@H]1c1cccc(C(C)(C)O)c1 (racemic) [Compound 1819]	pest or weed control at 250 g/ha	10
CCS(=O)(=O)c1ccccc1NC(=O)[C@H]1C(=O)N(C)C[C@@H]1c1ccc(C(F)(F)F)cc1 (racemic) [Compound 1664]	pest or weed control at 250 g/ha	20
Cc1cnc(NC(=O)[C@@H]2C(=O)N(C)C[C@H]2c2ccc(C(F)(F)F)cc2)nc1 (racemic) [Compound 1575]	pest or weed control at 250 g/ha	0
CN1C[C@H](c2ccc(C(F)(F)F)cc2)[C@@H](C(=O)Nc2ncccc2[N+](=O)[O-])C1=O (racemic) [Compound 1431]	pest or weed control at 250 g/ha	0
Cc1c(F)ccc(NC(=O)[C@@H]2C(=O)N(C)C[C@H]2c2ccc(C(F)(F)F)cc2)c1F (racemic) [Compound 1629]	pest or weed control at 250 g/ha	0
Cc1conc1NC(=O)[C@@H]1C(=O)N(C)C[C@H]1c1ccc(C(F)(F)F)cc1 (racemic) [Compound 1553]	pest or weed control at 250 g/ha	0
Cc1c(F)cccc1NC(=O)[C@@H]1C(=O)N(C)C[C@H]1c1cccc(OCC2CC2)c1 (racemic) [Compound 1766]	pest or weed control at 250 g/ha	10

Origin of measurements: patent US12077503B2
